- tgt: T1, HLA-A2/NY-ESO peptide complex presented on cells (human)
- T1 construct: whole, on cells; also called HLA/NY-ESO; T2 cells supplemented with the NY-ESO peptide
- test_description: flow cytometry on peptide-pulsed T2 cells, scFv 100 nM;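 also: scFv binding read as gMFI and normalized to the level of HLA/peptide complex displayed on T2 cells, with homologous 9-mer peptides used to probe specificity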
measured_endpoint: standardized gMFI

1) NYA-1154 (scFv) scFv: GEVQLVESGGGVVQPGRSLTPSCSASGFSIRSYDMHWVRQAPGKGLEWVATISYDGSQKYFADSVKGRFTIFRDESENMVYLQMSGLRVEDTAVYHCARGSSNHYEAFDIWGQGTMVTVSSGGGGSGGGGSGGGGSQSVLTQPPSVSAAPGQKVTISCSGSSSNIGNNYVSWYQRLPGTAPKLLIYDNNKRPSGIPDRFSGSKSGTSATLGITGLQTGDEADYYCGAWDSSLSAPWVFGGGTKVTVLGAAAGAGGDYKDDDDKGAAAHHHHHH : 13.8
